What MIC was measured for each of the following?
System: E. coli carrying specific resistance determinants
Assay: Activity against wild-type and engineered E. coli carrying specific AMEs or RMTs
Type: cell-based
Conditions: Escherichia coli, read-out: Activity (MIC) E. coli AG103

Recorded MIC, per entry:
Request - read-out MIC | tested on E. coli carrying specific resistance determinants | compound CNC(C)C1CCC(N)C(OC2C(N)CC(N)C(OC3OCC(C)(O)C(NC)C3O)C2O)O1 (centres unmarked)
> 128 µg/mL

What do you have for CN[C@@H]1[C@@H](O)[C@@H](O[C@@H]2[C@@H](O)[C@H](O[C@H]3OC(CNCCO)=CC[C@H]3N)[C@@H](N)C[C@H]2NC(=O)[C@@H](O)CCN)OC[C@]1(C)O [Plazomicin, reference compound] ?
> 128 µg/mL

What do you have for "NC[C@H]1O[C@H](O[C@H]2[C@H](O)[C@@H](O[C@H]3O[C@H](CO)[C@@H](O)[C@H](N)[C@H]3O)[C@H](N)C[C@@H]2N)[C@H](N)C[C@@H]1O" ?
> 128 µg/mL

What do you have for "NCC[C@H](O)C(=O)N[C@@H]1C[C@H](N)[C@@H](O[C@H]2O[C@H](CN)[C@@H](O)[C@H](O)[C@H]2O)[C@H](O)[C@H]1O[C@H]1O[C@H](CO)[C@@H](O)[C@H](N)[C@H]1O" ?
> 128 µg/mL

Others:
Request - read-out MIC | tested on E. coli carrying specific resistance determinants | compound NC[C@@H]1O[C@H](O[C@H]2[C@@H](O)[C@H](O[C@@H]3[C@@H](O)[C@H](N)C[C@H](N)[C@H]3O[C@H]3O[C@H](CO)[C@@H](O)[C@H](O)[C@H]3N)O[C@@H]2CO)[C@H](N)[C@@H](O)[C@@H]1O [Compound 1, paromomycin, reference compound]
4 µg/mL

* * *

Tested on: MRSA
Assay: Antibacterial activity against reference strains: MRSA
Assay type: cell-based
Details: Staphylococcus aureus, MRSA, read-out: Antibacterial activity (MIC) MRSA AG042
What MIC was measured for each of the following?

Field request: MIC | item: "NC[C@H]1O[C@H](O[C@H]2[C@H](O)[C@@H](O[C@H]3O[C@H](CO)[C@@H](O)[C@H](N)[C@H]3O)[C@H](N)C[C@@H]2N)[C@H](N)C[C@@H]1O"
≥ 256 µg/mL

What do you have for NC[C@@H]1O[C@H](O[C@H]2[C@@H](O)[C@H](O[C@@H]3[C@@H](O)[C@H](N)C[C@H](N)[C@H]3O[C@H]3O[C@H](CO)[C@@H](O)[C@H](O)[C@H]3N)O[C@@H]2CO)[C@H](N)[C@@H](O)[C@@H]1O [Compound 1, paromomycin, reference compound] ?
> 256 µg/mL

Kindly give each listed record's MIC.
1. CNC(C)C1CCC(N)C(OC2C(N)CC(N)C(OC3OCC(C)(O)C(NC)C3O)C2O)O1 (stereo not shown)
2. NCC[C@H](O)C(=O)N[C@@H]1C[C@H](N)[C@@H](O[C@H]2O[C@H](CN)[C@@H](O)[C@H](O)[C@H]2O)[C@H](O)[C@H]1O[C@H]1O[C@H](CO)[C@@H](O)[C@H](N)[C@H]1O

1: 64 µg/mL; 2: 16 to 32 µg/mL

* * *

What IC50 wt was measured for each of the following?
Test system: wild-type bacterial ribosome
Test: Cell-free translation assay, wild-type bacterial ribosome
Format: biochemical
Details: in vitro translation inhibition
A complete answer gives the number followed by the unit.

Kindly give each listed record's IC50 wt.
1. NCC[C@H](O)C(=O)N[C@@H]1C[C@H](N)[C@@H](O[C@H]2O[C@H](CN)[C@@H](O)[C@H](O)[C@H]2O)[C@H](O)[C@H]1O[C@H]1O[C@H](CO)[C@@H](O)[C@H](N)[C@H]1O
2. CN[C@@H]1[C@@H](O)[C@@H](O[C@@H]2[C@@H](O)[C@H](O[C@H]3OC(CNCCO)=CC[C@H]3N)[C@@H](N)C[C@H]2NC(=O)[C@@H](O)CCN)OC[C@]1(C)O [Plazomicin, reference compound]

0.02 µg/mL
0.06 µg/mL

* * *

Test system: Mit13 hybrid ribosome (decoding A site of the human mitochondrial ribosome)
Format: biochemical
Conditions: Mit13 over wt bacterial ribosome
Please assign N whenever Selectivity Mit 13 is at or above 3000, and Y whenever it is below.

Answer whether the molecule "CCC[C@H]1[C@H](O)[C@@H](N)[C@@H](O[C@H]2[C@H](O[C@@H]3O[C@H](CO)[C@@H](O[C@H]4O[C@@H](CN)[C@@H](O)[C@H](O)[C@H]4N)[C@H]3O)[C@@H](O)[C@H](N)C[C@@H]2N)O[C@@H]1CO" has Selectivity Mit 13 strictly less than 3000
N

What do you have for NCC1OC(OC2C(CO)OC(OC3C(O)C(N)CC(N)C3OC3OC(CO)C(CC(O)CO)C(O)C3N)C2O)C(N)C(O)C1O (stereo not drawn) ?
Y

What do you have for CN[C@@H]1[C@@H](O)[C@@H](O[C@@H]2[C@@H](O)[C@H](O[C@H]3OC(CNCCO)=CC[C@H]3N)[C@@H](N)C[C@H]2NC(=O)[C@@H](O)CCN)OC[C@]1(C)O [Plazomicin, reference compound] ?
Y

What do you have for CCSC1C(CO)OC(OC2C(N)CC(N)C(O)C2OC2OC(CO)C(OC3OC(CN)C(O)C(O)C3N)C2O)C(N)C1O (stereo not drawn) ?
Y

What do you have for CCOC1C(CO)OC(OC2C(N)CC(N)C(O)C2OC2OC(CO)C(OC3OC(CN)C(O)C(O)C3N)C2O)C(N)C1O (stereo not drawn) ?
Y

* * *

What MIC was measured for each of the following?
System: E. coli carrying specific resistance determinants
Experiment: Activity against wild-type and engineered E. coli carrying specific AMEs or RMTs
Type: cell-based
Conditions: Escherichia coli, read-out: Activity (MIC) E. coli AG105
One number for each entry, in µg/mL.

Field request: MIC | item: "NC[C@H]1O[C@H](O[C@H]2[C@H](O)[C@@H](O[C@H]3O[C@H](CO)[C@@H](O)[C@H](N)[C@H]3O)[C@H](N)C[C@@H]2N)[C@H](N)C[C@@H]1O"
1

What do you have for NC[C@@H]1O[C@H](O[C@H]2[C@@H](O)[C@H](O[C@@H]3[C@@H](O)[C@H](N)C[C@H](N)[C@H]3O[C@H]3O[C@H](CO)[C@@H](O)[C@H](O)[C@H]3N)O[C@@H]2CO)[C@H](N)[C@@H](O)[C@@H]1O [Compound 1, paromomycin, reference compound] ?
2

What do you have for CNC(C)C1CCC(N)C(OC2C(N)CC(N)C(OC3OCC(C)(O)C(NC)C3O)C2O)O1 (centres unmarked) ?
32

Attention now shifts to the item below.
Field request: MIC | item: "NCC[C@H](O)C(=O)N[C@@H]1C[C@H](N)[C@@H](O[C@H]2O[C@H](CN)[C@@H](O)[C@H](O)[C@H]2O)[C@H](O)[C@H]1O[C@H]1O[C@H](CO)[C@@H](O)[C@H](N)[C@H]1O"
2

* * *

What Selectivity Mit 13 was measured for each of the following?
Test system: Mit13 hybrid ribosome (decoding A site of the human mitochondrial ribosome)
Format: biochemical
Settings: Mit13 over wt bacterial ribosome
Numbers only.

Kindly give each listed record's Selectivity Mit 13.
1. NCC[C@H](O)C(=O)N[C@@H]1C[C@H](N)[C@@H](O[C@H]2O[C@H](CN)[C@@H](O)[C@H](O)[C@H]2O)[C@H](O)[C@H]1O[C@H]1O[C@H](CO)[C@@H](O)[C@H](N)[C@H]1O
2. NC[C@@H]1O[C@H](O[C@H]2[C@@H](O)[C@H](O[C@@H]3[C@@H](O)[C@H](N)C[C@H](N)[C@H]3O[C@H]3O[C@H](CO)C[C@H](O)[C@H]3N)O[C@@H]2CO)[C@H](N)[C@@H](O)[C@@H]1O

1. 600
2. 1480

Kindly give each listed record's Selectivity Mit 13.
1. NC[C@H]1O[C@H](O[C@H]2[C@H](O)[C@@H](O[C@H]3O[C@H](CO)[C@@H](O)[C@H](N)[C@H]3O)[C@H](N)C[C@@H]2N)[C@H](N)C[C@@H]1O
2. NC[C@@H]1O[C@H](O[C@H]2[C@@H](O)[C@H](O[C@@H]3[C@@H](O)[C@H](N)C[C@H](N)[C@H]3O[C@H]3O[C@H](CO)[C@@H](O)[C@H](O)[C@H]3N)O[C@@H]2CO)[C@H](N)[C@@H](O)[C@@H]1O [Compound 1, paromomycin, reference compound]

[750, 2500]

* * *

Tested on: E. coli
Assay: Antibacterial activity against reference strains: E. coli
Conditions: strain AG003 carries the AAC(3) gene
What Antibacterial activity (MIC) E. coli AG003 was measured for each of the following?
Answers are plain numbers, in mg/L.

Recorded Antibacterial activity (MIC) E. coli AG003, per entry:
Request - read-out Antibacterial activity (MIC) E. coli AG003 | tested on E. coli | compound CCOC1C(CO)OC(OC2C(N)CC(N)C(O)C2OC2OC(CO)C(OC3OC(CN)C(O)C(O)C3N)C2O)C(N)C1O (stereo not drawn)
32

What do you have for CCSC1C(CO)OC(OC2C(N)CC(N)C(O)C2OC2OC(CO)C(OC3OC(CN)C(O)C(O)C3N)C2O)C(N)C1O (stereo not drawn) ?
8

What do you have for NCC1OC(OC2C(CO)OC(OC3C(O)C(N)CC(N)C3OC3OC(CO)C(CC(O)CO)C(O)C3N)C2O)C(N)C(O)C1O (stereo not drawn) ?
8

Kindly give each listed record's Antibacterial activity (MIC) E. coli AG003.
1. CCC1C(CO)OC(OC2C(N)CC(N)C(O)C2OC2OC(CO)C(OC3OC(CN)C(O)C(O)C3N)C2O)C(N)C1O (stereo not drawn)
2. NC[C@@H]1O[C@H](O[C@H]2[C@@H](O)[C@H](O[C@@H]3[C@@H](O)[C@H](N)C[C@H](N)[C@H]3O[C@H]3O[C@H](CO)C[C@H](O)[C@H]3N)O[C@@H]2CO)[C@H](N)[C@@H](O)[C@@H]1O

[8, 32]
